Overview of recorded IC50 for various molecules
# experimental-system: Retinoic acid receptor gamma (Homo sapiens, UniProt P13631)
# Sequence (P13631 whole entry): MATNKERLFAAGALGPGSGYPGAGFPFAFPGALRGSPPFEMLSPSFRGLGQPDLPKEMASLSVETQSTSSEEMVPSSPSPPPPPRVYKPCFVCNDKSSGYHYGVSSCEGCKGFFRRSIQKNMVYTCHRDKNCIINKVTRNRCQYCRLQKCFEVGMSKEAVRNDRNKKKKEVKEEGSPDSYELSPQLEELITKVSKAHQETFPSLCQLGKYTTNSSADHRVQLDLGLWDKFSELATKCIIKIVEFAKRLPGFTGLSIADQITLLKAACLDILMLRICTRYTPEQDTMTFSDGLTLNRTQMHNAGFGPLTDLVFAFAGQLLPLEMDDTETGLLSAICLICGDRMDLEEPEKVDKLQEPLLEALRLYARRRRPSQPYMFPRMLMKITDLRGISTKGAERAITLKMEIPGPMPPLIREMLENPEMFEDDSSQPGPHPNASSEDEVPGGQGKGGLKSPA
# procedure-text: Antagonistic activity against RAR gamma in transcriptional activation assay with 3.2 nM TTNPB
Please give a number only; it is taken to be in nM.

Check out these entries, answers already filled in.
Cc1ccc(C2=CCC(C)(C)c3cc4ccc(-c5ccc(C(=O)O)cc5)cc4cc32)s1: 2
Cc1ccc(C2=CC(C)(C)Sc3cc4ccc(-c5ccc(C(=O)O)cc5)cc4cc32)cc1: 0.5
Cc1ccc(C2=CCC(C)(C)c3cc4ccc(-c5ccc(C(=O)O)cc5)cc4cc32)cc1: 2
Cc1ccc(C2=CC(C)(C)Oc3cc4ccc(-c5ccc(C(=O)O)cc5)cc4cc32)s1: 4

Next up:
[ask] Test system Retinoic acid receptor gamma (Homo sapiens, UniProt P13631); read-out IC50; what value for Cc1ccc(C2=CC(C)(C)Oc3cc4ccc(-c5ccc(C(=O)O)cc5)cc4cc32)cc1 ?
[reply] 2

###

Overview of recorded Abrasion score for various compounds
# Species on record: Mus musculus
# procedure-text: Compound was tested for abrasion score in mice at a dose of 3.6 nmol/25 g of TTNPB and 7.2 nmol/25 g of the compound
# Format: functional
// return a plain number; no unit text

Check out these entries, answers already filled in.
C/C(=C\c1ccc(C(=O)O)cc1)c1ccc2c(c1)C(C)(C)CCC2(C)C.Cc1ccc(C2=CC(C)(C)Sc3cc4ccc(-c5ccc(C(=O)O)cc5)cc4cc32)cc1: 0
C/C(=C\c1ccc(C(=O)O)cc1)c1ccc2c(c1)C(C)(C)CCC2(C)C.Cc1ccc(C2=CCC(C)(C)c3cc4ccc(-c5ccc(C(=O)O)cc5)cc4cc32)cc1: 1
C/C(=C\c1ccc(C(=O)O)cc1)c1ccc2c(c1)C(C)(C)CCC2(C)C.Cc1ccc(C2=CC(C)(C)Oc3cc4ccc(-c5ccc(C(=O)O)cc5)cc4cc32)cc1: 1

Next up:
[ask] Which Abrasion score reading was recorded for the compound C/C(=C\c1ccc(C(=O)O)cc1)c1ccc2c(c1)C(C)(C)CCC2(C)C.Cc1ccc(C2=CC(C)(C)Oc3cc4ccc(-c5ccc(C(=O)O)cc5)cc4cc32)s1 ?
[reply] 3

###

# experimental-system: Retinoic acid receptor beta (Homo sapiens)
# Sequence (P10826 whole entry): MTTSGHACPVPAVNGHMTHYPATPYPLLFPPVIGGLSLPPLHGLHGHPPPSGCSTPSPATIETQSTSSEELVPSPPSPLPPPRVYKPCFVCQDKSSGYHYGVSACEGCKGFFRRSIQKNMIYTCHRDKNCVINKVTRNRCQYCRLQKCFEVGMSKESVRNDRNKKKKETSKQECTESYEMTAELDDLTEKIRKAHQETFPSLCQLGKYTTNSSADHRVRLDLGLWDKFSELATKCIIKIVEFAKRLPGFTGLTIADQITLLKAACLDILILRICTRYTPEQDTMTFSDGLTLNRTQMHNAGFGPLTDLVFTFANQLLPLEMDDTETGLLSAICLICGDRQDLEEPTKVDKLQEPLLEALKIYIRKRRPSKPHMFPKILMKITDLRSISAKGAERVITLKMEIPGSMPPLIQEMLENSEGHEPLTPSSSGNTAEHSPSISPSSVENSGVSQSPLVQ
# procedure-text: Antagonistic activity against RAR beta in transcriptional activation assay with 10 nM TTNPB
Overview of recorded IC50 for various compounds
Please give a number only; it is taken to be in nM.

Check out these entries, answers already filled in.
Cc1ccc(C2=CC(C)(C)Oc3cc4ccc(-c5ccc(C(=O)O)cc5)cc4cc32)cc1: 7.5
Cc1ccc(C2=CC(C)(C)Sc3cc4ccc(-c5ccc(C(=O)O)cc5)cc4cc32)cc1: 2
Cc1ccc(C2=CCC(C)(C)c3cc4ccc(-c5ccc(C(=O)O)cc5)cc4cc32)cc1: 22
Cc1ccc(C2=CCC(C)(C)c3cc4ccc(-c5ccc(C(=O)O)cc5)cc4cc32)s1: 15

Next up:
[ask] Which IC50 reading was recorded for the compound Cc1ccc(C2=CC(C)(C)Oc3cc4ccc(-c5ccc(C(=O)O)cc5)cc4cc32)s1 ?
[reply] 6.5

###

# experimental-system: Retinoic acid receptor alpha (Homo sapiens)
# Sequence (P10276 whole entry): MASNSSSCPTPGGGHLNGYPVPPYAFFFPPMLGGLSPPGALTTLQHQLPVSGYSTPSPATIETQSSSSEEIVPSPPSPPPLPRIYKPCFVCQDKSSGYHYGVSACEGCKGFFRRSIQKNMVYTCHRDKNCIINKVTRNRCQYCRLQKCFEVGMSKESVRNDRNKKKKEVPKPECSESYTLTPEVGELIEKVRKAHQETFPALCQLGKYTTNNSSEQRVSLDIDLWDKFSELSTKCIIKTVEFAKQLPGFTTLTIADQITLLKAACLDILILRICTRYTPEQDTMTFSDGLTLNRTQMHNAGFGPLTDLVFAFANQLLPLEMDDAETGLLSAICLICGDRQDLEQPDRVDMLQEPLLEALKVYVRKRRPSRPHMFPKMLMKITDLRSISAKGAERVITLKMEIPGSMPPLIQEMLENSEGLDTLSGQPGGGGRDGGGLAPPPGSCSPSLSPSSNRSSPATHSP
# procedure-text: Antagonistic activity against RAR alpha in transcriptional activation assay with 32 nM TTNPB
observable: IC50 (nM)
Please give a number only; it is taken to be in nM.

Cc1ccc(C2=CCC(C)(C)c3cc4ccc(-c5ccc(C(=O)O)cc5)cc4cc32)s1: 20
Cc1ccc(C2=CC(C)(C)Oc3cc4ccc(-c5ccc(C(=O)O)cc5)cc4cc32)cc1: 5.5
Cc1ccc(C2=CCC(C)(C)c3cc4ccc(-c5ccc(C(=O)O)cc5)cc4cc32)cc1: 20
Cc1ccc(C2=CC(C)(C)Oc3cc4ccc(-c5ccc(C(=O)O)cc5)cc4cc32)s1: 6.5

Next up:
[ask] Which IC50 reading was recorded for the compound Cc1ccc(C2=CC(C)(C)Sc3cc4ccc(-c5ccc(C(=O)O)cc5)cc4cc32)cc1 ?
[reply] 1.5
